Assay: ESI positive response factor (isotope-corrected peak area per molar concentration) in SFC/ESI/HRMS (area units per M); higher = higher ionization efficiency;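 also: standards in acetonitrile/water run in triplicate on a zwitterionic HILIC column, CO2–methanol gradient containing 20 mmol/L ammonium acetate, postcolumn makeup flow, Orbitrap full-scan detection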
Conditions: 0.0122 µM
Metric name: ESI positive response factor

• CON(C)C(=O)Nc1ccc(Br)cc1 [Metobromuron] = 2.18e+17
• CN(C)C(=O)Nc1ccc(Cl)cc1 [Monuron] = 2.43e+16
• CON(C)C(=O)Nc1ccc(Cl)c(Cl)c1 [Linuron] = 4.3e+16
• N=C(N=C(N)N)N1CCOCC1 [Moroxydine] = 1.51e+17
• Cc1cc(=O)oc2cc(O)ccc12 [4-Methylumbelliferone] = 7.52e+16
• CCc1cccc(C)c1N(C(=O)CCl)C(C)COC (stereo unspecified) [Metolachlor] = 4.41e+17
• N=c1nc(N2CCCCC2)cc(N)n1O [Minoxidil] = 1.59e+17
• CC1(C)CCC(Cc2ccc(Cl)cc2)C1(O)Cn1cncn1 (stereo unspecified) [Metconazol] = 3.22e+17
• NCCCC[C@H](N[C@@H](CCc1ccccc1)C(=O)O)C(=O)N1CCC[C@H]1C(=O)O [Lisinopril] = 7.7e+15
• Cc1cccc(C)c1N(Cn1cccn1)C(=O)CCl [Metazachlor] = 3.21e+17
• CSc1nnc(C(C)(C)C)c(=O)n1N [Metribuzin] = 2.83e+17

---

Experiment: ESI positive response factor (isotope-corrected peak area per molar concentration) in SFC/ESI/HRMS (area units per M); higher = higher ionization efficiency
Conditions: 0.0122 µM
Metric name: ESI positive response factor

- O=C1NCCCN1 [N,N?-Trimethyleneurea]: 2.53e+16
- C[NH2+]C[C@H](O)CO [3-Methylamino-1,2-propanediol]: 7.17e+16
- CC(C)(CO)[C@@H](O)C(=O)NCCCO [Panthenol]: 5.93e+16
- OCC[C@@H]1CCCC[NH2+]1 [2-Piperidineethanol]: 1.24e+17

---

Each record here notes measured ESI positive response factor.
Test: ESI positive response factor (isotope-corrected peak area per molar concentration) in SFC/ESI/HRMS (area units per M); higher = higher ionization efficiency
Conditions: 0.175 µM
Metric name: ESI positive response factor

- CCC[C@@H]1O[C@@H]2C[C@H]3[C@@H]4CCC5=CC(=O)C=C[C@]5(C)[C@H]4[C@@H](O)C[C@]3(C)[C@]2(C(=O)CO)O1: 1.16e+17
- CNC(=O)CSP(=S)(OC)OC [Dimethoate]: 5.04e+16
- CCCCC(=O)N(Cc1ccc(-c2ccccc2-c2nn[nH]n2)cc1)C(C(=O)O)C(C)C (stereo not given): 5.75e+16
- CCOC(=O)[C@H](CCc1ccccc1)N[C@@H](C)C(=O)N1CCC[C@H]1C(=O)O: 3.2e+17
- CCCCC(CC)CN (stereo not given): 2.01e+16
- Cc1cc2nc3c(=O)[nH]c(=O)nc-3n(CC(O)C(O)C(O)CO)c2cc1C (stereo not given): 2.66e+15
- CCCCC(CC)CNCC(CC)CCCC (stereo not given): 9.83e+17
- COc1ccc(O)c(C(C)(C)C)c1 [Butylated hydroxyanisole]: 2.82e+15
- CON(C)C(=O)Nc1ccc(Br)c(Cl)c1: 4.62e+16
- Nc1nc(N)c2nc(CO)cnc2n1 [2,4-Diamino-6-(hydroxymethyl)pteridine]: 3.56e+16
- COC(=O)CCCCCCCCC(=O)OC [Dimethylsebacate]: 5.72e+16
- COC(=O)C1=CCCN(C)C1: 3.78e+17
- CNC(=O)Oc1cccc2c1OC(C)(C)C2: 7.6e+16
- COc1ccc2cc(C(C)C(=O)O)ccc2c1 (stereo not given): 6.98e+15
- CCOP(=S)(OCC)Oc1cc(C)nc(C(C)C)n1: 5.13e+16
- C#C[C@]1(O)CC[C@H]2[C@@H]3CCc4cc(O)ccc4[C@H]3CC[C@@]21C: 1.59e+16
- CN(C)CCC=C1c2ccccc2CCc2ccccc21: 4.36e+17
- NCC1CCC(C(=O)O)CC1 (stereo not given): 5.79e+16
- c1ccc(CC2=NCCN2)cc1: 4.79e+15
- OCCN(CCO)CCO: 8.76e+16

---

Assay: ESI positive response factor (isotope-corrected peak area per molar concentration) in SFC/ESI/HRMS (area units per M); higher = higher ionization efficiency
Settings: 0.175 µM
Metric name: ESI positive response factor

- CC(=O)NCCCS(=O)(=O)O [Acamprosate]: 3.1e+15
- CC(C)NCC(O)COc1ccc(CC(N)=O)cc1 (centres undefined) [Atenolol]: 1.75e+17
- CN(C)CCOC(c1ccccc1)c1ccccc1 [Diphenhydramine]: 2.35e+17
- CC(=O)OCC[N+](C)(C)C [Acetylcholine]: 2.16e+17
- Nc1ccccn1 [2-Aminopyridine]: 1.48e+16
- CN(C)C(=O)C(c1ccccc1)c1ccccc1 [Diphenamid]: 9.79e+16
- CN=C(NC#N)NCCSCc1nc[nH]c1C [Cimetidine]: 8.23e+16
- Cn1cnc2c1c(=O)n(CCCC(=O)O)c(=O)n2C [1-(3-Carboxypropyl)-3,7-dimethyl-xanthin]: 2e+16
- COCCOCCOCCO [Triethylene glycol monomethyl ether]: 7.97e+16
- COC=C(C(=O)OC)c1ccccc1COc1cccc(C(F)(F)F)n1 [Picoxystrobin]: 2.25e+17
- NC(=O)c1c(Cl)cccc1Cl [2,6-Dichlorbenzamid]: 2.26e+16
- COCC(=O)N(c1c(C)cccc1C)N1CCOC1=O [Oxadixyl]: 1.23e+17
- Cc1ccc(NC(=O)N(C)C)cc1Cl [Chlortoluron]: 1.28e+17
- COC(=O)NS(=O)(=O)c1ccc(N)cc1 [Asulam]: 1.29e+16

---

Assay: ESI positive response factor (isotope-corrected peak area per molar concentration) in SFC/ESI/HRMS (area units per M); higher = higher ionization efficiency
Details: 0.0875 µM
Metric name: ESI positive response factor

* Cn1c(=O)c2c(ncn2C)n(C)c1=O | 2.03e+17
* COc1nc(C)nc(NC(=O)NS(=O)(=O)c2ccccc2Cl)n1 | 4.88e+16
* CC(O)CN(CC(C)O)CC(C)O (stereo unspecified) | 2.93e+17
* COc1ccc2cc(C(C)C(=O)O)ccc2c1 (stereo unspecified) | 7.04e+15
* COc1ccc(C(=O)c2ccccc2)c(O)c1 | 1.67e+17
* Cc1ccc(NC(=O)N(C)C)cc1Cl | 1.48e+17
* CC(=O)N1CC(O)C[C@H]1C(=O)O (stereo in doubt) [Trans-1-acetyl-4-hydroxy-L-prolin] | 1.56e+15
* C[N+](C)(C)CCCl [Chlormequate] | 1.95e+17
* COCCOCCOCCO | 8.29e+16
* NCC1CCC(C(=O)O)CC1 (stereo unspecified) | 6.97e+16
* CN(C)CCOC(c1ccccc1)c1ccccc1 [Diphenhydramine] | 2.16e+17
* C[N+]1(C)[C@H]2CC(OC(=O)C(CO)c3ccccc3)C[C@H]1[C@H]1O[C@H]12 (stereo partly specified) | 7.49e+17
* Nc1ccccn1 | 1.55e+16
* CC(CCl)OP(=O)(OC(C)CCl)OC(C)CCl (stereo unspecified) | 1.02e+18
* CC(=O)Nc1ccc(O)cc1 | 4.18e+16
* Nc1ncnc2c1ncn2C1OC(CO)C(O)C1O (stereo unspecified) | 1.26e+17
* O=c1[nH]sc2ccccc12 | 1.52e+16
* CNC(=O)CSP(=O)(OC)OC [Omethoate] | 3.65e+16
* c1ccc2[nH]nnc2c1 | 1.11e+16
* C=CC(=O)OCC[N+](C)(C)C [[2-(Acryloyloxy)ethyl]trimethylammonium] | 6.97e+16
* NC(=O)C1(N2CCCCC2)CCN(CCCC(=O)c2ccc(F)cc2)CC1 | 5.44e+17

---

Experiment: ESI positive response factor (isotope-corrected peak area per molar concentration) in SFC/ESI/HRMS (area units per M); higher = higher ionization efficiency
Conditions: 0.875 µM
Each record here notes measured ESI positive response factor.
Metric name: ESI positive response factor

- O=c1nc2[nH][nH]cc-2c(=O)[nH]1 [Oxypurinol]: 5.5e+14
- NC(=O)c1c(Cl)cccc1Cl [2,6-Dichlorbenzamid]: 2.38e+16
- Cn1cnc2c1c(=O)n(CCCC(=O)O)c(=O)n2C [1-(3-Carboxypropyl)-3,7-dimethyl-xanthin]: 2.22e+16
- c1ccc(CC2=NCCN2)cc1 [2-Benzylimidazoline]: 5.13e+15
- C=CC(=O)OCC[N+](C)(C)C [[2-(Acryloyloxy)ethyl]trimethylammonium]: 6.01e+16

---

Experiment: ESI positive response factor (isotope-corrected peak area per molar concentration) in SFC/ESI/HRMS (area units per M); higher = higher ionization efficiency
Conditions: 0.0175 µM
Each record here notes measured ESI positive response factor.
Metric name: ESI positive response factor

• COP(=O)(OC)SCn1c(=O)oc2cc(Cl)cnc21 = 6.62e+17
• CN(C)C(=O)C(c1ccccc1)c1ccccc1 = 1.12e+17
• CCOC(=O)[C@H](CCc1ccccc1)N[C@@H](C)C(=O)N1CCC[C@H]1C(=O)O = 2.87e+17
• C[N+]1(C)[C@H]2CC(OC(=O)C(CO)c3ccccc3)C[C@H]1[C@H]1O[C@H]12 (some centres undefined) = 6.75e+17
• CCOP(=S)(OCC)Oc1cc(C)nc(C(C)C)n1 = 3.13e+16
• CCNC(=O)[C@H](C)OC(=O)Nc1ccccc1 = 5.72e+16
• C[C@]12CC[C@H]3[C@@H](CCC4=CC(=O)CC[C@@]43C)[C@@H]1CC[C@@H]2O = 2.27e+17
• COC=C(C(=O)OC)c1ccccc1COc1cccc(C(F)(F)F)n1 = 2.81e+17
• COCCOCCOCCO = 8.19e+16
